Listing of entries alongside the reported fitness.
system: B. subtilis 168; test: fitness (endpoint OD595 vs no drug) (fraction); higher = more growth; conditions: first compound 0.78 µg/mL; partner 0.5 µg/mL; one replicate;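 further: OD595 on entry to stationary phase over no-drug wells; at most 1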
No unit in the answer, only the number.

Sample records with fitness:
{"columns": ["COMPOUND", "TEST TARGET", "fitness"],
 "data": [
  ["CO/N=C(\\C(=O)N[C@@H]1C(=O)N2C(C(=O)O)=C(COC(N)=O)CS[C@H]12)c1ccco1 [Cefuroxime] + N[C@@H]1CONC1=O [Cycloserine D]", "B. subtilis 168", 0.284],
  ["CO/N=C(\\C(=O)N[C@@H]1C(=O)N2C(C(=O)O)=C(COC(N)=O)CS[C@H]12)c1ccco1 [Cefuroxime] + CO[C@@H]1[C@@H](OC(N)=O)[C@@H](O)[C@H](Oc2ccc3c(O)c(NC(=O)c4ccc(O)c(CC=C(C)C)c4)c(=O)oc3c2C)OC1(C)C [Novobiocin]", "B. subtilis 168", 0.0061],
  ["CO/N=C(\\C(=O)N[C@@H]1C(=O)N2C(C(=O)O)=C(COC(N)=O)CS[C@H]12)c1ccco1 [Cefuroxime] + Cc1cc(NS(=O)(=O)c2ccc(N)cc2)no1 [Sulfamethoxazol]", "B. subtilis 168", 0.356]
]}

Kindly review the next compound as well.
Prompt: Indicate the recorded fitness value for this compound: COc1ccc(C[C@H](N)C(=O)N[C@H]2[C@@H](O)[C@H](n3cnc4c(N(C)C)ncnc43)O[C@@H]2CO)cc1 [Puromycin] + Cc1cc(NS(=O)(=O)c2ccc(N)cc2)no1
Completion: 0.996

###

system: B. subtilis 168; experiment: fitness (endpoint OD595 vs no drug) (fraction); higher = more growth; settings: first compound 1.25 µg/mL; partner 4 µg/mL;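 further: OD595 on entry to stationary phase over no-drug wells; at most 1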
MEASURED QUANTITY: fitness
No unit in the answer, only the number.

Sample records with fitness:
{"columns": ["COMPOUND", "fitness"],
 "data": [
  ["COc1cccc2c1C(=O)c1c(O)c3c(c(O)c1C2=O)C[C@@](O)(C(=O)CO)C[C@@H]3O[C@H]1C[C@H](N)[C@H](O)[C@H](C)O1 [Doxorubicin] + COc1c(N2C[C@@H]3CCCN[C@@H]3C2)c(F)cc2c(=O)c(C(=O)O)cn(C3CC3)c12 [Moxifloxacin]", 0.0351],
  ["Cc1ncc([N+](=O)[O-])n1CCO [Metronidazole] + COc1c(N2C[C@@H]3CCCN[C@@H]3C2)c(F)cc2c(=O)c(C(=O)O)cn(C3CC3)c12 [Moxifloxacin]", 0.0355],
  ["Cc1ncc([N+](=O)[O-])n1CCO [Metronidazole] + CN[C@@H]1[C@H](O)[C@H](NC)[C@H]2O[C@@]3(O)C(=O)C[C@@H](C)O[C@H]3O[C@@H]2[C@H]1O [Spectinomycin]", 0.953]
]}

Prompt: Indicate the recorded fitness value for this compound: COc1cccc2c1C(=O)c1c(O)c3c(c(O)c1C2=O)C[C@@](O)(C(=O)CO)C[C@@H]3O[C@H]1C[C@H](N)[C@H](O)[C@H](C)O1 [Doxorubicin] + CN[C@@H]1[C@H](O)[C@H](NC)[C@H]2O[C@@]3(O)C(=O)C[C@@H](C)O[C@H]3O[C@@H]2[C@H]1O [Spectinomycin]
Completion: 0.954

###

The following compounds each carry a recorded MIC for S. pneumoniae D39V.
Field: numeric (µg/mL). Do not append units.

{"columns": ["STRUCTURE SMILES", "REPORTED VALUE"],
 "data": [
  ["C[C@@H]1O[C@@H]1P(=O)(O)O", 6.25],
  ["N#CC(C#N)=NNc1cccc(Cl)c1", 4.5],
  ["CN(C)[C@@H]1C(O)=C(C(N)=O)C(=O)[C@@]2(O)C(O)=C3C(=O)c4c(O)ccc(Cl)c4[C@@](C)(O)[C@H]3C[C@@H]12", 1.5],
  ["COc1ccc(C[C@H](N)C(=O)N[C@H]2[C@@H](O)[C@H](n3cnc4c(N(C)C)ncnc43)O[C@@H]2CO)cc1", 12.5]
]}

Kindly review the next compound as well.
Prompt: Enter recorded MIC with S. pneumoniae D39V for COc1cccc2c1C(=O)c1c(O)c3c(c(O)c1C2=O)C[C@@](O)(C(=O)CO)C[C@@H]3O[C@H]1C[C@H](N)[C@H](O)[C@H](C)O1 here.
Completion: 1.2

# credit: the supplement of paper PMC10627819
